system_tested: human recombinant Btk (Homo sapiens (Human))
method: biochemical
pIC50: −log10 of the molar value.
Lab note: anything with pIC50 at or over 8 counts as label 1; the rest go in label 0.

The examples below pair each entry with its known result.
[
  {
    "molecule": "N#CC(=CC1CC1)C(=O)N1CCC[C@@H]1Cn1nc(-c2ccc(Oc3c(F)cccc3F)cc2)c2c(N)ncnc21 [Example 32A]",
    "system_tested": "human recombinant Btk (Homo sapiens (Human))",
    "cat": "label 1"
  },
  {
    "molecule": "Cc1cc(Oc2ccccc2)ccc1-c1nn(C[C@H]2CCCN2C(=O)C(C#N)=CC2CC2)c2ncnc(N)c12 [Example 69A]",
    "system_tested": "human recombinant Btk (Homo sapiens (Human))",
    "cat": "label 1"
  },
  {
    "molecule": "CC(C)(C)C=C(C#N)C(=O)N1CCC[C@@H](n2nc(-c3ccc(Oc4ccccc4)cc3)c3c(N)ncnc32)C1 [29 A]",
    "system_tested": "human recombinant Btk (Homo sapiens (Human))",
    "cat": "label 1"
  }
]

Shift focus to the following entry.
Quick check, pIC50 >= 8? N#CC(=CC1CC1)C(=O)N1CCC[C@H]1Cn1nc(-c2ccc(Oc3cc(F)cc(F)c3)cc2)c2c(N)ncnc21 [Example 25B]
label 0

====

The reader will find reported IC50 values listed item by item below.
system_tested: human recombinant Btk (Homo sapiens (Human))
experimental_conditions: Caliper-based kinase assay; human recombinant Btk 2 nM, ATP 40 μM, peptide substrate 1 μM, room temperature 3 h
Reply with the number and its unit after it.

Worked set:
[
  {
    "compound": "NC(=O)C(=CC1CC1)C(=O)N1CCC[C@@H](n2nc(-c3ccc(Oc4cccc(F)c4)cc3)c3c(N)ncnc32)C1 [Example 15A]",
    "result_value": "1.7 nM"
  },
  {
    "compound": "CC(C)(N)C=C(C#N)C(=O)N1CCC[C@H]1Cn1nc(-c2ccc(Oc3cccc(F)c3)cc2F)c2c(N)ncnc21 [Example 72B]",
    "result_value": "28 nM"
  },
  {
    "compound": "N#CC(=CC1CC1)C(=O)N1CCCC1Cn1nc(-c2ccc(Oc3ccccc3)cc2)c2c(N)ncnc21 (stereo not shown) [Example 22B]",
    "result_value": "2.6 nM"
  }
]

Proceed to the following item.
Answer briefly: IC50 recorded on human recombinant Btk (Homo sapiens (Human)) for CC1(C=C(C#N)C(=O)N2CCC[C@H]2Cn2nc(-c3ccc(Oc4ccccc4)cc3F)c3c(N)ncnc32)COC1 [Example 197B]
32.5 nM

====

system_tested: human recombinant Btk (Homo sapiens (Human), UniProt Q06187)
Sequence (Q06187 whole entry): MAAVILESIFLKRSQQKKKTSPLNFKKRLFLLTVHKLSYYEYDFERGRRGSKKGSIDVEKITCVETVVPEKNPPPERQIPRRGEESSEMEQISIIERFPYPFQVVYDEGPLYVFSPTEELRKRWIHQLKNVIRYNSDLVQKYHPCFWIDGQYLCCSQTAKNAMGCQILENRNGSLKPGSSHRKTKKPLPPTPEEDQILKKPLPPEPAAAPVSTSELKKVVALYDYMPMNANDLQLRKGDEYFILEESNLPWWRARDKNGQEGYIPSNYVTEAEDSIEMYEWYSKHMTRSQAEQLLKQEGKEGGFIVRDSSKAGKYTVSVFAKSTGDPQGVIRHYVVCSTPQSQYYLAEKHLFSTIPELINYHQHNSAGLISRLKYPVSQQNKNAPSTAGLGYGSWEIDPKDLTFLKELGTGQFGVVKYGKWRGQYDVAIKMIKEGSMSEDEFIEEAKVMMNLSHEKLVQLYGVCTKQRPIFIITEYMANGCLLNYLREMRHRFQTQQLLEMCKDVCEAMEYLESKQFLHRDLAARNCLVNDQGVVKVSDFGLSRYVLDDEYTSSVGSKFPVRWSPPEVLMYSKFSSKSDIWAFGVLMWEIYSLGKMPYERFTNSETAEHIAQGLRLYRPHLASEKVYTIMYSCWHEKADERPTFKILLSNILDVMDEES
experimental_conditions: Caliper-based kinase assay; human recombinant Btk 2 nM, ATP 40 μM, peptide substrate 1 μM, room temperature 3 h
measured_metric: IC50

Worked set:
[
  {
    "molecule": "CCNC(C)(C)C=C(C#N)C(=O)N1CCCC1Cn1nc(-c2ccc(Oc3ccccc3)cc2F)c2c(N)ncnc21 (stereo in doubt) [Example 85B]",
    "IC50": "17.2 nM"
  },
  {
    "molecule": "CC(C)(C)C=C(C#N)C(=O)NC1CCC(n2nc(-c3ccc(NC(=O)c4ccc(C(F)(F)F)cc4)cc3)c3c(N)ncnc32)CC1 (stereo not shown) [10 (Cpd Table 2)]",
    "IC50": "> 1000 nM"
  },
  {
    "molecule": "CC(C)(C=C(C#N)C(=O)N1CCC[C@@H](n2nc(-c3ccc(Oc4cccc(F)c4F)cc3F)c3c(N)ncnc32)C1)N1CCOCC1 [Example 162A]",
    "IC50": "0.9 nM"
  }
]

Answer briefly: IC50 recorded on human recombinant Btk (Homo sapiens (Human), UniProt Q06187) for CCOC(C)(C)C=C(C#N)C(=O)N1CCC[C@@H](n2nc(-c3ccc(Oc4cccc(F)c4F)cc3F)c3c(N)ncnc32)C1 [Example 156A]
7.3 nM

====

The reader will find reported pIC50 values listed item by item below.
system_tested: human recombinant Btk (Homo sapiens (Human))
method: biochemical
Reminder that pIC50 means the negative base-10 logarithm of the concentration expressed in mol/L.

Worked set:
[
  {
    "compound": "CC(C)C=C(C#N)C(=O)N1CCC[C@H]1Cn1nc(-c2ccc(Oc3cccc(F)c3)cc2F)c2c(N)ncnc21 [Example 73B]",
    "pIC50": 7.96
  },
  {
    "compound": "N#CC(=CC1CC1)C(=O)N1CCC[C@@H]1Cn1nc(-c2ccc(Oc3cc(F)cc(F)c3)cc2F)c2c(N)ncnc21 [Example 41A]",
    "pIC50": 8.49
  }
]

In one line, give reported pIC50 of the entry CC(C)C=C(C#N)C(=O)N1CCC[C@H]1Cn1nc(-c2ccc(Oc3c(F)cccc3F)cc2)c2c(N)ncnc21 [Example 75B] .
7.00

====

system_tested: human recombinant Btk (Homo sapiens (Human), UniProt Q06187)
experimental_conditions: Caliper-based kinase assay; human recombinant Btk 2 nM, ATP 40 μM, peptide substrate 1 μM, room temperature 3 h
The reader will find reported pIC50 values listed item by item below.
Reminder that pIC50 means the negative base-10 logarithm of the concentration expressed in mol/L.

Worked set:
[
  {
    "compound": "CC(C)(C)C=C(C#N)C(=O)N1CCC[C@@H]1Cn1cc(-c2ccc(Oc3cccc(F)c3F)cc2)c2c(N)ncnc21 [Example 173B]",
    "system_tested": "human recombinant Btk (Homo sapiens (Human), UniProt Q06187)",
    "measured_metric": "pIC50",
    "result_value": 7.47
  },
  {
    "compound": "NC(=O)C(=CC1CC1)C(=O)N1CCC[C@@H](n2nc(-c3ccc(Oc4c(F)cccc4F)cc3)c3c(N)ncnc32)C1 [Example 36A]",
    "system_tested": "human recombinant Btk (Homo sapiens (Human), UniProt Q06187)",
    "measured_metric": "pIC50",
    "result_value": 8.37
  }
]

In one line, give reported pIC50 of the entry N#CC(=CC1CC1)C(=O)N1CCC[C@@H]1Cn1nc(-c2ccc(Oc3cccc(F)c3)cc2)c2c(N)ncnc21 [Example 24A] .
8.21

In one line, give reported pIC50 of the entry CC(C)(CNC(=O)C(C#N)=CC1CC1)Cn1nc(-c2ccc(Oc3ccccc3)cc2)c2c(N)ncnc21 .
7.57

In one line, give reported pIC50 of the entry CCNC(C)(C)C=C(C#N)C(=O)N1CCCC1Cn1nc(-c2ccc(Oc3ccccc3)cc2F)c2c(N)ncnc21 (stereo in doubt) [Example 85A] .
9.40

In one line, give reported pIC50 of the entry N#CC(=CC1CC1)C(=O)N1CCC[C@H]1Cn1cc(-c2ccc(Oc3ccccc3)cc2F)c2c(N)ncnc21 [Example 59B] .
7.59

====

system_tested: human recombinant Btk (Homo sapiens (Human), UniProt Q06187);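 also: Read-out is the quantity of phosphorylated substrate product formed, and IC50 reflects inhibition of Btk kinase activity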
method: biochemical
The reader will find reported IC50 values listed item by item below.
Respond with the bare value in nM.

Worked set:
[
  {
    "compound": "CC(C)C=C(C#N)C(=O)N1CCC[C@H]1Cn1nc(-c2ccc(Oc3cccc(F)c3F)cc2)c2c(N)ncnc21 [Example 76B]",
    "system_tested": "human recombinant Btk (Homo sapiens (Human), UniProt Q06187)",
    "unit_of_measurement": "nM",
    "result_value": 7
  },
  {
    "compound": "N#CC(=CC1CC1)C(=O)N1CCC[C@@H]1Cn1nc(-c2ccc(Oc3cc(F)cc(F)c3)cc2)c2c(N)ncnc21 [Example 25A]",
    "system_tested": "human recombinant Btk (Homo sapiens (Human), UniProt Q06187)",
    "unit_of_measurement": "nM",
    "result_value": 9.6
  }
]

In one line, give reported IC50 of the entry C[C@@H](Cn1nc(-c2ccc(Oc3ccccc3)cc2F)c2c(N)ncnc21)NC(=O)C(C#N)=CC(C)(C)N(C)C [Example 185B] .
11
